Below, each entry is listed alongside its reported logD.
Test: physchem
Settings: octan-1-ol/water, pH 7.4, LogD7.4
MEASUREMENT_TYPE: logD

> print(dat)
                                    compound  endpoint.value
 1       COc1ccc(-c2coc3cc(O)cc(O)c3c2=O)cc1             3.5
 2                           NNC(=O)c1ccncc1           -0.57
 3  CN(C)C/C=C/C(=O)Nc1cc2c(Nc3ccc(F)c(Cl)c3)ncnc2cc1O[C@H]1CCOC1             3.7
 4  COc1cc2ncnc(Nc3ccc(F)c(Cl)c3)c2cc1OCCN1CCN(C)CC1             3.3
 5                      CCOc1ccc(NC(C)=O)cc1             1.5
 6  COc1cc2c(Nc3ccc(F)c(Cl)c3)c(C(N)=O)cnc2cc1OCCCN1CCN(C)CC1             1.2
 7            Cc1cc2cc3c(C)cc(=O)oc3c(C)c2o1            3.47
 8  Cc1ccc(NC(=O)c2cccc(N(C)C)c2)cc1NC(=O)c1ccc(O)cc1            2.65
 9            Cn1sc(=O)c2cc(S(N)(=O)=O)ccc21             0.3
10  C#CCN(c1ccnc(Nc2ccc(OCC(O)CN(C)C)cc2)n1)c1cc(Cl)ccc1Cl (stereo not drawn)             3.2
11  CS(=O)(=O)Nc1cccc(NC(=O)CN2CCN(C(=O)C[C@H](N)Cc3ccc(F)c(F)c3)[C@H](Cc3ccccc3)C2)c1            2.06
12  CCOc1ccccc1-c1ccc(-c2nc3ccc(F)cc3c(C(=O)NCCOCCN)c2C)cc1            2.46
13              Cc1cc2c(C)cc(=O)oc2c2c1NCCC2             2.9
14  O=C(c1ccc(F)cc1)C1CCN(C(=O)c2ccc(F)cc2)CC1             2.9
15  CCC(CC)NC(=O)c1cnn(Cc2ccccc2)c1NS(=O)(=O)c1ccc(C)cc1            1.52
16                    Nc1nc(N)c2cc(Br)ccc2n1            1.78
17        O=C(Nc1ccc(F)cc1)c1cccnc1Oc1ccccc1            3.19
18             CCCSc1ncccc1C(=O)N(C)C1CCCCC1            3.36
19  C[C@@H]1c2c([nH]c3ccc(C(F)(F)F)cc23)C[C@@H]2CCN(CCN3CCOCC3)C[C@H]21            2.87
20  CCCc1c(OCc2cccc(NC(=O)Cc3ccccc3C(=O)O)c2)ccc(C(C)=O)c1O            2.95
21  CSc1ccc(-c2nc(-c3ccc(F)cc3)c(-c3ccncc3)[nH]2)cc1            2.97
22  CC[C@H](NC(=O)c1c([S+](C)[O-])c(-c2cccs2)nc2ccccc12)c1ccccc1 (stereo partly drawn)            3.56
23  COc1cc(Nc2nc(N[C@@H](C)c3ncc(F)cn3)ncc2Cl)n[nH]1            2.53
24  O=c1[nH]c2c(O)ccc([C@@H](O)CNCCSCCCOCCc3ccccc3)c2s1            2.54
25  COc1cc2ncnc(Nc3cccc(Cl)c3F)c2cc1CN1CCC[C@H]1C(N)=O            3.58
26  Clc1n[nH]c2cccc(Nc3ccnc(Nc4cc(N5CCOCC5)cc(N5CCOCC5)c4)n3)c12            2.78
27                         Fc1ccc2cn[nH]c2c1             2.3
28   CC(C)NCC(O)COc1nccs1 (stereo not drawn)           -0.97

The origin of these recorded values is ChEMBL document CHEMBL3301361.
